- TARGET DESC: TRAP1 enzyme (Homo sapiens, UniProt Q12931)
- Sequence (Q12931 60-704): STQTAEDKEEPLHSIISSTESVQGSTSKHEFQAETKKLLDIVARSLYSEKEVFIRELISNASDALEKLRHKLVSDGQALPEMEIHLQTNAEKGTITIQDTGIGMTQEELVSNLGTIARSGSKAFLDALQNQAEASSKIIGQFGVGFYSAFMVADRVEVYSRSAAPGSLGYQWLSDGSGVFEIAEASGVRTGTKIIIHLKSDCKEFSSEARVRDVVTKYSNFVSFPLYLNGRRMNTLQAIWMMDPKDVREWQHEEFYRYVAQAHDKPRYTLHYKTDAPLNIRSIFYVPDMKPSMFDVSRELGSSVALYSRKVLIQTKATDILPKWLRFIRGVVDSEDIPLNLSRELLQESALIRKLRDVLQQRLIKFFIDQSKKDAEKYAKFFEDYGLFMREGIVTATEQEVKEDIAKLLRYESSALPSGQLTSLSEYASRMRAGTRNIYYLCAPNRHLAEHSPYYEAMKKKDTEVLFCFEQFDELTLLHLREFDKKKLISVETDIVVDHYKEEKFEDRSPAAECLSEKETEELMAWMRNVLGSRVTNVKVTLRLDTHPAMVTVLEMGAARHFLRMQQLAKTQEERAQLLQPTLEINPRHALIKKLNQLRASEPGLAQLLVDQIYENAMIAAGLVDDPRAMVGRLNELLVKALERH
- PROTOCOL TEXT: Malachite green phosphate assay of TRAP1 ATPase activity
- Type: biochemical
- RUN CONDITIONS: TRAP1 ATPase activation, 150 nM Trap1, 20 μM ATP, geometric mean; read-out: Malachite Green Fluor DRC: GeoMean EC50
- Description: The Potency of test compounds to modulate the ATPase activity of TRAP1 enzyme was evaluated using malachite green phosphatase assay. The assay is based on quantification of the green complex formed between Malachite Green, molybdate and inorganic phosphate generated in the phosphatase reaction. Assays were performed using a Malachite Green assay kit. […] The reaction was stopped by adding 12% H2SO4 and the plate was read for fluorescence at 620 nm (λex=573 nm). […]
Readings of EC50 for the listed molecules

Please review the following examples before continuing.
[[record]]
molecule = "COc1ccc(NC(=O)c2cnc(C(F)(F)F)[nH]2)cc1S(=O)(=O)Nc1ccc(Br)cc1 [Compound 105]"
target_desc = "TRAP1 enzyme (Homo sapiens, UniProt Q12931)"
test_result = "20 to 100 µM"

[[record]]
molecule = "CC(C)c1ccc(NC(=O)c2ncc(-c3ccccc3)o2)cc1S(=O)(=O)Nc1ccc(Cl)cc1 [Compound 580]"
target_desc = "TRAP1 enzyme (Homo sapiens, UniProt Q12931)"
test_result = "< 10 µM"

[[record]]
molecule = "COc1ccc(NC(=O)c2cnc(C(F)(F)F)[nH]2)cc1S(=O)(=O)N(CCCCCN1CCCC1)c1ccc(Br)cc1 [Compound 439]"
target_desc = "TRAP1 enzyme (Homo sapiens, UniProt Q12931)"
test_result = "20 to 100 µM"

[[record]]
molecule = "COc1ccc(NC(=O)c2csc(-c3ccccc3)n2)cc1S(=O)(=O)Nc1ccc(Cl)cc1 [Compound 487]"
target_desc = "TRAP1 enzyme (Homo sapiens, UniProt Q12931)"
test_result = "10 to 20 µM"


# next molecule below
stdin: Which EC50 is listed for COc1ccc(NC(=O)c2cnc[nH]2)cc1S(=O)(=O)N(CCCCCCO)c1ccc(Br)cc1 [Compound 246] ?
stdout: 20 to 100 µM

* * *

compounds and their reported Emax
- TARGET DESC: TRAP1 enzyme (Homo sapiens, UniProt Q12931)
- PROTOCOL TEXT: ADP Glo assay of TRAP1 ATPase activity
- Type: biochemical
- RUN CONDITIONS: read-out: ADP GLO DRC: Mean Emax

[[record]]
entry_smiles = "COc1ccc(NC(=O)c2cnccc2-c2ccccc2)cc1S(=O)(=O)Nc1c(C)cccc1C"
target_desc = "TRAP1 enzyme (Homo sapiens, UniProt Q12931)"
test_result = "200 to 300%"

[[record]]
entry_smiles = "COc1ccc(NC(=O)c2ncc(-c3ccccc3)o2)cc1S(=O)(=O)Nc1c(C(C)C)ccnc1C(C)C"
target_desc = "TRAP1 enzyme (Homo sapiens, UniProt Q12931)"
test_result = "160 to 199%"

[[record]]
entry_smiles = "COc1ccc(NC(=O)c2cc3cc(Br)cnc3s2)cc1S(=O)(=O)Nc1c(C)cccc1C"
target_desc = "TRAP1 enzyme (Homo sapiens, UniProt Q12931)"
test_result = "200 to 300%"


stdin: // fetch TRAP1 enzyme (Homo sapiens, UniProt Q12931) Emax for COc1ccc(NC(=O)c2c(C)noc2-c2ccccc2)cc1S(=O)(=O)Nc1c(C)cccc1C
stdout: 123 to 159%

Just for reference, patent US20230174523A1 is where these values come from.
